Below, each entry is listed with its recorded EC50.
# TGT: T1, SARS-COV-2 RBD (SARS-COV-2, UniProt P0DTC2 319-539)
# T1 construct: also called WT RBD
# ASSAY INFO: ELISA, RBD coated on plate
Field: numeric (ng/mL). Do not append units.

Worked cases, answers included:
Incoming: Value lookup for EC50; key = C909 (antibody, V domains shown) VH: QVQLVQSGAEVKKPGASVKVSCRASGYTFPNYDLNWVRQATGQGLEWMGWMNPNSGNTGYAQKFQGRITMTRITSISTAYMELSSLRSEDTAVYYCARGRANWNSNFLLDSWGQGTLVTVSS VL: QSALTQPASVSGSPGQSITISCTGTSSDVGGYNLVSWYQQYPGNVPKLMIYEDAKRPSGVSNRFSGSKSANTASLTISGLQAEDEADYYCCSYAGSSTRYVFGTGTKVTVL
Outgoing: 3.24

Incoming: // same read-out, input: C947 (antibody, V domains shown) VH: QVQLQESGPGLVRPSGTLSLTCAVTGGSISSSDCWSWVRQPPGKGLEWIGEICHGRTSNYNPSLKSPVSISVDKSKNQFSLILSSVTAADKAVYYCARSSRFLPPLPDAFDLWGQGTMVTVSS VL: QSVLTQPPSVSGAPGQRVTISCTGSSSNIGAGYDVHWYKQLPGTAPKLLIYGNTNRPSGVPGRFSGSKSGTSASLAITGLQAEDEADYFCQSYDTRLSVVFGGGTKLT
Outgoing: 2.08

As a next step, examine the binder that follows.
Incoming: Value lookup for EC50; key = C904 (antibody, V domains shown) VH: QVQLQQWGAGLLKPSETLSLTCAVNGGSLSLYYWSWIRQSPGKGLEWIGEINHFGGSDYKPSLKSRVSISVDTSTNQFSLKLSSVTAADTAVYYCARKPLLHSNISPGAFDIWGQGTMVTVSS VL: EIVLTQSPGTLSLSPGERATLSCRASQSVAGSYLAWYQQKPGQAPRLLIYGASSRATGVPDRISGSGSGTDFTLTISRLEPEDFAVYYCQQYTNTPRTFGGGTKVEI
Outgoing: 3.31

meta.source: patent US20240218057A1
